# study target: Gap1p (Saccharomyces cerevisiae, UniProt P19145, A297V/K16R/K9R)
# Sequence (P19145 1-602 K9R/K16R/A297V): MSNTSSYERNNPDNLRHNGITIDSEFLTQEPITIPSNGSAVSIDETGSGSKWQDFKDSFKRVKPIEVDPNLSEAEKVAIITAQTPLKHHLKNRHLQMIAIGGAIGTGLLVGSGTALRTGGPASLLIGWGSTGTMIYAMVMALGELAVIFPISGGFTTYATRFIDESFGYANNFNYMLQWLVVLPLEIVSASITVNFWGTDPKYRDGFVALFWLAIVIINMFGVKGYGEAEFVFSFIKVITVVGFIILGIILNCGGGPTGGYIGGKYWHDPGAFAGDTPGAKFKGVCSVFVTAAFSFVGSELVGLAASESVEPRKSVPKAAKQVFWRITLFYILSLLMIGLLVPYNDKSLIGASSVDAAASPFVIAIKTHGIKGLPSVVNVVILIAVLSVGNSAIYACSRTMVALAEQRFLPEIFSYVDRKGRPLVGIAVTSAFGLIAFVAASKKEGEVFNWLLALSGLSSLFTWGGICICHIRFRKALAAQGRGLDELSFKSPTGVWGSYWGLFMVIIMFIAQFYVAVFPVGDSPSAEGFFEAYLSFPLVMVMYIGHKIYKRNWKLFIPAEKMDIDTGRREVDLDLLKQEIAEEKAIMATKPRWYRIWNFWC
# measurement description: competitive inhibition of […]-glycine uptake in yeast cells
# Assay type: cell-based
measured metric: Ki

Determine from records and report Ki for NC(=O)NCCC[C@H](N)C(=O)O ~35.6 µM
